EXPERIMENT: Tmax in cynomolgus monkey after intranasal administration
Type: ADME, Macaca fascicularis
CONDITION_SUMMARY: in vivo, inhaled or intranasal
ENDPOINT_LABEL: Tmax

Enquiry: What measured Tmax goes with CCC[C@H](C)Oc1nc(N)c2[nH]c(=O)n(CCCCCN3CCCCC3)c2n1 [GSK-2245035] ?
Return: ≤ 5 min

----------
EXPERIMENT: Tmax in rat after intranasal administration
Type: ADME
CONDITION_SUMMARY: in vivo, inhaled or intranasal
ENDPOINT_LABEL: Tmax

Enquiry: Item CCC[C@H](C)Oc1nc(N)c2[nH]c(=O)n(CCCCCN3CCCCC3)c2n1 has what recorded Tmax?
Return: ≤ 5 min

----------
ASSAY_TARGET: Toll-like receptor 7 (Homo sapiens)
Sequence (Q9NYK1 whole entry): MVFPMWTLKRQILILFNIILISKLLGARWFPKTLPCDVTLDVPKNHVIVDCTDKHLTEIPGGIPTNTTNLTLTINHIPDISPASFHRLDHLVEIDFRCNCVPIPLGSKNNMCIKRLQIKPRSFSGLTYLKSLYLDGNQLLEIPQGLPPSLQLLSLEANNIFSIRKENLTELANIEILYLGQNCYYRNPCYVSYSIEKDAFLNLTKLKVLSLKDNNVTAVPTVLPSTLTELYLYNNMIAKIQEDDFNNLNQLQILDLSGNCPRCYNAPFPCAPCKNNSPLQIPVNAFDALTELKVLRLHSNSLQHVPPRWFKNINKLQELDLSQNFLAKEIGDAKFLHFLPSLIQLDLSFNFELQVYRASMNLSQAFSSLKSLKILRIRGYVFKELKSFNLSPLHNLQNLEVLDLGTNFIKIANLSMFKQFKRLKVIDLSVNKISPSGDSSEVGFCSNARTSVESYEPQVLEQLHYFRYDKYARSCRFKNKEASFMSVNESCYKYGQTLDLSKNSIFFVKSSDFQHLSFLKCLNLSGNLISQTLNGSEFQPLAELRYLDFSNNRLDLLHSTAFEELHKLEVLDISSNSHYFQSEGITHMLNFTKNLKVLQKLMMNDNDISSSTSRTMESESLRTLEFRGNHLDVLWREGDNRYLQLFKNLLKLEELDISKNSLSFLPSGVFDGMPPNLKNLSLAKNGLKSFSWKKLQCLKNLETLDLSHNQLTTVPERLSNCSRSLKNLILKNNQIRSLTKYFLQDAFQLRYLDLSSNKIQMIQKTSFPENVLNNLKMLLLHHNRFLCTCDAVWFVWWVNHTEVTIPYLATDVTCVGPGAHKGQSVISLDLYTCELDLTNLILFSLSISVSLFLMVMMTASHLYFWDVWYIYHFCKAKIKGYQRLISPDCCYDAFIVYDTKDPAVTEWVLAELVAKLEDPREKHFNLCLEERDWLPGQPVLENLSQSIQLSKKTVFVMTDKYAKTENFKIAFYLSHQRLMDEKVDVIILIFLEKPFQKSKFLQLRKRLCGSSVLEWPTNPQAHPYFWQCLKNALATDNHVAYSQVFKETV
EXPERIMENT: Agonist activity at TLR7 in human whole blood assessed as induction of IL-12p70 production after 20 hrs by electrochemiluminescence assay
Type: tissue-based
ENDPOINT_LABEL: EC50 (nM)
The answer is to be given in nM; state only the numeric part.

Enquiry: Item: CCC[C@H](C)Oc1nc(N)c2[nH]c(=O)n(CCCCCN3CCCCC3)c2n1 Test system: Toll-like receptor 7 (Homo sapiens) Read-out: EC50 Value: ?
Return: 63.1
